These data points were gathered from patent US5286714.

Target: thrombin
Assay: Ki(app.) from kinetics of thrombin inhibition with chromogenic substrate D-HHT-Gly-Arg-pNA (Stone and Hofsteenge), 25° C.
measurementKind: pKi
Answers are plain numbers, as −log10 of the molar value.

- binder: "[Ala^1,Thr^2,Glu^53] desulfatohirudin (protein) ATYTDCTESGQNLCLCEGSNVCGQGNKCILGSDGEKNQCVTGEGTPKPQSHNEGDFEEIPEEYLQ"
  measurementKind: "pKi"
  reading: 9.42
- binder: "[Ala^1,Thr^2,Glu^33,Gln^52,Glu^53,Glu^55]-desulfatohirudin (protein) ATYTDCTESGQNLCLCEGSNVCGQGNKCILGSEGEKNQCVTGEGTPKPQSHQEGEFEEIPEEYLQ"
  measurementKind: "pKi"
  reading: 9.52

From here, focus on the item given below.
Q) Complete the entry with pKi for [Ala^1,Thr^2,Glu^33] desulfatohirudin (protein) ATYTDCTESGQNLCLCEGSNVCGQGNKCILGSEGEKNQCVTGEGTPKPQSHNDGDFEEIPEEYLQ
A) 9.80
